Molecular target: IRAK-4 (Homo sapiens, UniProt Q9NWZ3)
Construct: His6 (N); Dr.Jaekel
Test: Test for the inhibition of IRAK4 (flashplate, 33P-ATP)
Assay type: biochemical
Conditions: enzyme
Protocol: The experimental batches are carried out in a flashplate system with 384 wells/microtitre plate. […] The activity of the kinase is measured via the incorporated radioactivity in top count. […] The radioactivity (decompositions per minute) of the blank value (no use of test substance in the presence of 1 μM staurosporin) is subtracted from all other radioactivity values. […] IC50 values (50% inhibition) are determined with the aid of statistics programs, such as, for example, RS1.
pIC50: −log10 of the molar value.
measurement.kind: pIC50

| molecule | result |
| --- | --- |
| COc1cc2[nH]c(-c3cc(-c4cnn(CC(=O)N5CCCCC5)c4)cnc3N)nc2cc1F [Compound A30] | 5.00 to 7.00 |
| Nc1ncc(-c2cnn(C3CCNCC3)c2)cc1-c1nc2ccc(Cl)cc2[nH]1 [Compound A70] | 7.00 to 9.00 |
| Cn1cc(-c2cnc(N)c(-c3nc4ccc(C(=O)NCCc5ccc(F)c(F)c5)cc4[nH]3)c2)cn1 [Compound A128] | 5.00 to 7.00 |
| Cn1cc(-c2cnc(N)c(-c3nc4c(F)cc(F)cc4[nH]3)c2)cn1 [Compound A76] | < 5.00 |
| Cc1cccc2nc(-c3cc(-c4cnn(C5CCNCC5)c4)cnc3N)[nH]c12 [Compound A89] | 5.00 to 7.00 |
| COc1ccc2nc(-c3cc(-c4cnn(C)c4)cnc3N)[nH]c2c1 [Compound A43] | 5.00 to 7.00 |
| COc1ccc2nc(-c3cc(-c4cnn(C(C)C)c4)cnc3N)[nH]c2c1 [Compound A107] | 7.00 to 9.00 |
| CC1CC(=O)NN=C1c1ccc2nc(-c3cc(-c4cnn(C)c4)cnc3N)[nH]c2c1 (racemic) [Compound A1] | < 5.00 |
| COc1ccc2nc(-c3cc(-c4cnn(C5CCNCC5)c4)cnc3N)[nH]c2c1 [Compound A92] | 7.00 to 9.00 |
| CCCn1cc(-c2cnc(N)c(-c3nc4ccccc4[nH]3)c2)cn1 [Compound A44] | 5.00 to 7.00 |
| Cn1cc(-c2cnc(N)c(-c3nc4cccc(CO)c4[nH]3)c2)cn1 [Compound A52] | 5.00 to 7.00 |
| Nc1ncc(-c2cnn(C3CCNCC3)c2)cc1-c1nc2ccc(F)cc2[nH]1 [Compound A50] | 7.00 to 9.00 |
| COc1cc2[nH]c(-c3cc(-c4cnn(C5CCNCC5)c4)cnc3N)nc2cc1F [Compound A69] | 7.00 to 9.00 |
| Cc1cc(Cl)cc2nc(-c3cc(-c4cnn(C5CCNCC5)c4)cnc3N)[nH]c12 [Compound A72] | 5.00 to 7.00 |
| Cc1cccc2nc(-c3cc(-c4cnn(C)c4)cnc3N)[nH]c12 [Compound A42] | 5.00 to 7.00 |
| COc1cc2nc(-c3cc(-c4cnn(C)c4)cnc3N)[nH]c2cc1F [Compound A78] | 5.00 to 7.00 |
| COc1ccc2nc(-c3cc(-c4cnn(CCCN(C)C)c4)cnc3N)[nH]c2c1 [Compound A96] | 5.00 to 7.00 |

----------
Target: IRAK-4 (Homo sapiens, UniProt Q9NWZ3)
Construct: His6 (N); Dr.Jaekel
Sequence (Q9NWZ3 1-460): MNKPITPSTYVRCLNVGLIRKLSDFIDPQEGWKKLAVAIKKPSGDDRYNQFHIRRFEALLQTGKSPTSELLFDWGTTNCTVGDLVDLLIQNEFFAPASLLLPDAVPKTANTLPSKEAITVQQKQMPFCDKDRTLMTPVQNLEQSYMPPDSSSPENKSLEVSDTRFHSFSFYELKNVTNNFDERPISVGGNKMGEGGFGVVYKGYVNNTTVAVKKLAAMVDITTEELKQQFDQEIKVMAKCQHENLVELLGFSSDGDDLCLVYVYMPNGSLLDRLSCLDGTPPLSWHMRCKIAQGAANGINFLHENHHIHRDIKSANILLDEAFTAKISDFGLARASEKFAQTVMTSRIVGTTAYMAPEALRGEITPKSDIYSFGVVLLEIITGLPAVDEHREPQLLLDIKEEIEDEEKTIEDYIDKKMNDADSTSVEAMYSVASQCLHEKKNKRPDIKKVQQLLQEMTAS
Assay: Test for the inhibition of IRAK4 (flashplate, 33P-ATP)
Type: biochemical
Details: enzyme

| smiles.repr | IC50 |
| --- | --- |
| COc1ccc2nc(-c3cc(-c4cnn(CCN(C)C)c4)cnc3N)[nH]c2c1 | 100 to 10000 nM |
| Nc1ncc(-c2cnn(C3CCNCC3)c2)cc1-c1nc2ccccc2[nH]1 | 1 to 100 nM |
| Cn1cc(-c2cnc(N)c(-c3nc4ccc(F)cc4[nH]3)c2)cn1 | 100 to 10000 nM |
| Nc1ncc(-c2ccncc2)cc1-c1nc2ccccc2[nH]1 | 100 to 10000 nM |
| COCCNC(=O)c1ccc(-c2cnc(N)c(-c3nc4ccc(OC)cc4[nH]3)c2)s1 | 1 to 100 nM |
| COc1ccc2nc(-c3cc(-c4cnn(Cc5cccs5)c4)cnc3N)[nH]c2c1 | 100 to 10000 nM |
| COc1ccc2nc(-c3cc(-c4ccc(C(=O)NC5CCN(C)CC5)s4)cnc3N)[nH]c2c1 | 1 to 100 nM |
| Cn1cc(-c2cnc(N)c(-c3nc4ccc(-c5ccc(=O)[nH]n5)cc4[nH]3)c2)cn1 | 100 to 10000 nM |

----------
# pIC50 per entry for IRAK-1 (Homo sapiens, UniProt P51617)
pIC50: −log10 of the molar value.
measurement.kind: pIC50

| smiles.repr | result |
| --- | --- |
| Nc1ncc(-c2cnn(C3CCNCC3)c2)cc1-c1nc2ccccc2[nH]1 | 5.00 to 7.00 |
| Cc1cccc2nc(-c3cc(-c4cnn(CCN5CCOCC5)c4)cnc3N)[nH]c12 | 5.00 to 7.00 |
| Cn1cc(-c2cnc(N)c(-c3nc4ccc(C(=O)NCCc5ccc(F)c(F)c5)cc4[nH]3)c2)cn1 | 5.00 to 7.00 |

----------
Molecular target: IRAK-4 (Homo sapiens)
Construct: His6 (N); Dr.Jaekel
Experiment: IC50 IRAK-4 (cell)
Assay type: cell-based
pIC50: −log10 of the molar value.
Listed compounds paired with reported pIC50

| compound | measured.on | pIC50 |
| --- | --- | --- |
| COc1ccc2nc(-c3cc(-c4cnn(C(C)C)c4)cnc3N)[nH]c2c1 [Compound A107] | IRAK-4 (Homo sapiens) | 5.00 to 7.00 |
| CCCn1cc(-c2cnc(N)c(-c3nc4ccccc4[nH]3)c2)cn1 [Compound A44] | IRAK-4 (Homo sapiens) | 5.00 to 7.00 |
| COc1ccc2nc(-c3cc(-c4cnn(C5CCNCC5)c4)cnc3N)[nH]c2c1 [Compound A92] | IRAK-4 (Homo sapiens) | 5.00 to 7.00 |

----------
# IC50 per entry for IRAK-1 (Homo sapiens)

| molecule | IC50 |
| --- | --- |
| Cn1cc(-c2cnc(N)c(-c3nc4c(F)cc(F)cc4[nH]3)c2)cn1 [Compound A76] | 100 to 10000 nM |
| Nc1ncc(-c2cnn(C3CCNCC3)c2)cc1-c1nc2ccc(Cl)cc2[nH]1 [Compound A70] | 100 to 10000 nM |
| COc1ccc2nc(-c3cc(-c4cnn(Cc5cccs5)c4)cnc3N)[nH]c2c1 [Compound A113] | 1 to 100 nM |
| COc1cc2nc(-c3cc(-c4cnn(C)c4)cnc3N)[nH]c2cc1F [Compound A78] | 1 to 100 nM |
| Nc1ncc(-c2ccncc2)cc1-c1nc2ccccc2[nH]1 [Compound A32] | 100 to 10000 nM |
| COc1ccc2nc(-c3cc(-c4cnn(C5CCNCC5)c4)cnc3N)[nH]c2c1 [Compound A92] | 1 to 100 nM |
| COc1ccc2nc(-c3cc(-c4ccc(C(=O)NC5CCN(C)CC5)s4)cnc3N)[nH]c2c1 [Compound A133] | 1 to 100 nM |
| Cc1cccc2nc(-c3cc(-c4cnn(C)c4)cnc3N)[nH]c12 [Compound A42] | 100 to 10000 nM |
| Cn1cc(-c2cnc(N)c(-c3nc4ccc(-c5ccc(=O)[nH]n5)cc4[nH]3)c2)cn1 [Compound A8] | 100 to 10000 nM |

----------
Target: PDK1 (Homo sapiens, UniProt O15530)
Construct: His6 (N)
Sequence (O15530 51-556 limits assumed): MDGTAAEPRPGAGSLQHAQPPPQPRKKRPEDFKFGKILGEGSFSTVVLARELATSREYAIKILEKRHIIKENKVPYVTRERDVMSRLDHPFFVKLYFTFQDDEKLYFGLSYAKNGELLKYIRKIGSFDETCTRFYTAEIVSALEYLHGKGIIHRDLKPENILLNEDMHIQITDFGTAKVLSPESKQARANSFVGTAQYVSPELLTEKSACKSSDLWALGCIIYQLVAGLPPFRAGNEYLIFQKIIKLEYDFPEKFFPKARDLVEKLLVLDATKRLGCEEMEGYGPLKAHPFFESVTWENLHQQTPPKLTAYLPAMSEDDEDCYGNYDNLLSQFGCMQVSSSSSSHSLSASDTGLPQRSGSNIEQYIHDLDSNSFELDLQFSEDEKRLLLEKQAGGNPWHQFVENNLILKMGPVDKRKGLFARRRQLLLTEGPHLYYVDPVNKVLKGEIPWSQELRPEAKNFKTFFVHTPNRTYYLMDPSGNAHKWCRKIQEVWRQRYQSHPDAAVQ
Experiment: Test for the inhibition of PDK1 (flashplate, 33P-ATP)
Format: biochemical
Conditions: enzyme
pIC50: −log10 of the molar value.
Listed compounds paired with reported pIC50
measurement.kind: pIC50

| compound | measurement.kind | result |
| --- | --- | --- |
| Cn1cc(-c2cnc(N)c(-c3nc4ccc(C(O)c5ccccc5)cc4[nH]3)c2)cn1 (centres unmarked) | pIC50 | 7.00 to 9.00 |
| CC1CC(=O)NN=C1c1ccc2[nH]c(-c3cc(-c4cnn(C5CCN(C)CC5)c4)cnc3N)nc2c1 (centres unmarked) | pIC50 | 7.00 to 9.00 |
| Nc1ncc(-c2cnn(C3CCNCC3)c2)cc1-c1nc2cc(OC(F)(F)F)ccc2[nH]1 | pIC50 | 7.00 to 9.00 |
| Cn1cc(-c2cnc(N)c(-c3nc4c(O)cccc4[nH]3)c2)cn1 | pIC50 | 7.00 to 9.00 |
| CC1CC(=O)NN=C1c1ccc2[nH]c(-c3cc(-c4cnn(C5CCNCC5)c4)cnc3N)nc2c1 (centres unmarked) | pIC50 | 7.00 to 9.00 |
| CCC1CC(=O)NN=C1c1ccc2[nH]c(-c3cc(-c4cnn(C)c4)cnc3N)nc2c1 (centres unmarked) | pIC50 | 7.00 to 9.00 |
| Cn1cc(-c2cnc(N)c(-c3nc4ccc(F)cc4[nH]3)c2)cn1 | pIC50 | 7.00 to 9.00 |
| COc1cc2[nH]c(-c3cc(-c4cnn(C5CCNCC5)c4)cnc3N)nc2cc1F | pIC50 | 7.00 to 9.00 |
| CN(C)c1ccc2nc(-c3cc(-c4cnn(C)c4)cnc3N)[nH]c2c1 | pIC50 | 7.00 to 9.00 |
| C[C@H]1CC(=O)NN=C1c1ccc2nc(-c3cc(-c4cnn(C)c4)cnc3N)[nH]c2c1 (single isomer, unassigned) | pIC50 | 7.00 to 9.00 |
| COc1ccc2nc(-c3cc(-c4ccc(C(=O)NC5CCN(C)CC5)s4)cnc3N)[nH]c2c1 | pIC50 | 7.00 to 9.00 |
| Cn1cc(-c2cnc(N)c(-c3nc4ccc(CCN)cc4[nH]3)c2)cn1 | pIC50 | 7.00 to 9.00 |
| CC(O)(c1ccccc1)c1ccc2[nH]c(-c3cc(-c4cnn(CCN5CCOCC5)c4)cnc3N)nc2c1 (centres unmarked) | pIC50 | 5.00 to 7.00 |
| COc1ccc2nc(-c3cc(-c4cnn(C5CCNCC5)c4)cnc3N)[nH]c2c1 | pIC50 | 7.00 to 9.00 |
| CC1CC(=O)NN=C1c1ccc2[nH]c(-c3cc(-c4cnn(CCN(C)C)c4)cnc3N)nc2c1 (centres unmarked) | pIC50 | 7.00 to 9.00 |
| COc1cc2[nH]c(-c3cc(-c4cnn(CCN5CCOCC5)c4)cnc3N)nc2cc1F | pIC50 | 5.00 to 7.00 |
| CC1CC(=O)NN=C1c1ccc2[nH]c(-c3cc(-c4cnn(CCN5CCOCC5)c4)cnc3N)nc2c1 (centres unmarked) | pIC50 | 7.00 to 9.00 |
| Cn1cc(-c2cnc(N)c(-c3nc4cccc(CO)c4[nH]3)c2)cn1 | pIC50 | 7.00 to 9.00 |
| CC1CC(=O)NN=C1c1ccc2[nH]c(-c3cc(-c4cnn(CC(=O)N5CCN(C)CC5)c4)cnc3N)nc2c1 (centres unmarked) | pIC50 | 7.00 to 9.00 |
| CC1CC(=O)NN=C1c1ccc2[nH]c(-c3cc(-c4cnn(CC(=O)O)c4)cnc3N)nc2c1 (centres unmarked) | pIC50 | 7.00 to 9.00 |
| Cn1cc(-c2cnc(N)c(-c3nc4ccc(C(=O)NCCc5ccc(F)c(F)c5)cc4[nH]3)c2)cn1 | pIC50 | 7.00 to 9.00 |
| COc1ccc2nc(-c3cc(-c4ccsc4)cnc3N)[nH]c2c1 | pIC50 | 7.00 to 9.00 |
| Nc1ncc(-c2cnn(C3CCNCC3)c2)cc1-c1nc2cc3[nH]c(=O)[nH]c3cc2[nH]1 | pIC50 | 7.00 to 9.00 |
| CC1CC(=O)NN=C1c1ccc2nc(-c3cc(-c4cnn(CCO)c4)cnc3N)[nH]c2c1 (centres unmarked) | pIC50 | 7.00 to 9.00 |
| COc1ccc2nc(-c3cc(-c4cnn(C5CCN(C)CC5)c4)cnc3N)[nH]c2c1 | pIC50 | 7.00 to 9.00 |
| Cc1cccc2nc(-c3cc(-c4cnn(C5CCNCC5)c4)cnc3N)[nH]c12 | pIC50 | 7.00 to 9.00 |
| CC1CC(=O)NN=C1c1ccc2nc(-c3cc(-c4cnn(C)c4)cnc3N)[nH]c2c1 (racemic) | pIC50 | 7.00 to 9.00 |
| COc1cc2nc(-c3cc(-c4cnn(C)c4)cnc3N)[nH]c2cc1F | pIC50 | 7.00 to 9.00 |
| C[C@@H]1CC(=O)NN=C1c1ccc2nc(-c3cc(-c4cnn(C)c4)cnc3N)[nH]c2c1 (single isomer, unassigned) | pIC50 | 7.00 to 9.00 |
| CC1CC(=O)NN=C1c1ccc2[nH]c(-c3cc(-c4cnn(C(C)C)c4)cnc3N)nc2c1 (centres unmarked) | pIC50 | 7.00 to 9.00 |
| Cn1cc(-c2cnc(N)c(-c3nc4cc(CC(N)=O)ccc4[nH]3)c2)cn1 | pIC50 | 7.00 to 9.00 |
| CC(C)(C)c1ccc2nc(-c3cc(-c4cnn(C5CCNCC5)c4)cnc3N)[nH]c2c1 | pIC50 | 7.00 to 9.00 |
